# test: Stability in dog liver microsome
# measurement_setup: with coenzyme, 2 μM, 37° C., 30 minutes
readout_name: Percentage of the compound remaining in dog liver microsome (%)

compound	unit_tag	endpoint_value
CCCOC(=O)N1CCC[C@H]1C(=O)OCOc1ccc([N+](=O)[O-])c2cccnc12	%	0.14
CN(C)C(=O)Oc1ccc([N+](=O)[O-])c2cccnc12 [Compound 78, 5-nitroquinolin-8-yl dimethylcarbamate]	%	0.36

(I) CCC(NC(=O)OCOc1ccc([N+](=O)[O-])c2cccnc12)C(=O)OC (stereo not shown)
(II) COC(=O)CCCCC(=O)OCOc1ccc([N+](=O)[O-])c2cccnc12
Larger number for Percentage of the compound remaining in dog liver microsome: I , or II ? Returns: label corresponding to the selected item. I
(I: 61.38%, II: 0.01%)
